Kindly supply the reported log10 of IC50 values for the records listed here.
Biological target: T1, amylin receptor in membranes prepared from the nucleus accumbens portion of the brain (rat) (rat)
T1 construct: whole, on cells; Native tissue membranes
Assay: displacement of 125I-rat amylin from rat nucleus accumbens membranes
No end group written: not given here.
log10 IC50, nM

Please supply log10 of IC50 for each of the following items, keeping them in order.
1. CNTATCATQRLANFLVHSSNNFGPILPK(mPEG40KD)TNVGSNTY-NH2 (ends and bridges not checked, also called Compound 36) [Cmpd 36, [K^29(mPEG40KD)]-Cmpd 18]
2. KCNTATCATQRLANFLVRSSNNLGPVLPPTNVGSNTY-NH2 (ends and bridges not checked, also called Compound 1) [Cmpd 1]
3. CNTATCATQRLANFLVHSSNNFGPK(mPEG40KD)LPPTNVGSNTY-NH2 (ends and bridges not checked, also called Compound 29) [Cmpd 29, [K^26(mPEG40KD)]-Cmpd 12]
4. CNTATCATQRLANFLVHSSNNFK(mPEG40KD)PILPPTNVGSNTY-NH2 (ends and bridges not checked, also called Compound 32) [Cmpd 32, [K^24(mPEG40KD)]-Cmpd 14]
5. CNTATCATQRLANFLVHSSNNFGPILK(mPEG40KD)PTNVGSNTY-NH2 (ends and bridges not checked, also called Compound 35) [Cmpd 35, [K^28(mPEG40KD)]-Cmpd 17]

Output:
1: 1.43; 2: -1.00; 3: 1.59; 4: 1.90; 5: 1.72

Values were extracted from patent US20140221287A1.
